Tested on: rat small-intestinal brush border membrane vesicles
Assay: Inhibitory effect on 33PO4 uptake into rat small-intestinal brush border membrane vesicles (rapid filtration method)
Assay type: biochemical
Settings: 1 μM test compound; 33PO4 uptake into rat small-intestinal BBMVs, reacted for 60 seconds
PROPERTY MEASURED: Rate of uptake inhibition (%) (1 μM)

MOLECULE: Cc1nc(NC(=O)C2=C(O)[C@@]3(C)CCCN3N(Cc3cccc(F)c3Br)C2=O)ccc1Br [Example 39]
VALUE OBSERVED: 90

MOLECULE: CSc1ncc(-c2nc(C(F)(F)F)ccc2NC(=O)C2=C(O)[C@@]3(C)CCCN3N(Cc3cccc(F)c3F)C2=O)cn1 [Example 54]
VALUE OBSERVED: 72

MOLECULE: CC1(C)CC[C@]2(C)C(O)=C(C(=O)Nc3ccc(C(F)(F)F)cc3-c3ccc(C(F)(F)F)nc3)C(=O)N(Cc3cccc(F)c3F)N12 [Example 61]
VALUE OBSERVED: 71

MOLECULE: COc1ccc(CN2C(=O)C(C(=O)Nc3cc(F)c(Br)c(F)c3)=C(O)[C@@]3(C)CCCN23)c(OC)c1 [Example 58]
VALUE OBSERVED: 46

MOLECULE: C[C@]12CCCN1N(Cc1cccc(F)c1)C(=O)C(C(=O)Nc1ccc(Br)c(F)c1)=C2O [Example 35]
VALUE OBSERVED: 79

MOLECULE: C[C@]12CCCN1N(Cc1cccc(F)c1F)C(=O)C(C(=O)Nc1ccc(C(F)(F)F)cc1-c1cc(C#N)ccn1)=C2O [Example 45]
VALUE OBSERVED: 73

MOLECULE: C[C@]12CCCN1N(Cc1cccc(C#N)c1)C(=O)C(C(=O)Nc1ccc(C(F)(F)F)cc1-c1cnc(Cl)c(C#N)c1)=C2O [Example 51]
VALUE OBSERVED: 72

MOLECULE: C[C@]12CCCN1N(Cc1ccc(OCCN3CCOCC3)c(F)c1F)C(=O)C(C(=O)Nc1ccc(C(F)(F)F)nc1-c1ccccc1OC(F)(F)F)=C2O [Example 59]
VALUE OBSERVED: 84

MOLECULE: C[C@]12CCCN1N(Cc1cccc(F)c1F)C(=O)C(C(=O)Nc1ccc(C(F)(F)F)cc1-c1cccc(C#N)c1F)=C2O [Example 46]
VALUE OBSERVED: 71

MOLECULE: C[C@]12CCCN1N(Cc1cccc(F)c1Br)C(=O)C(C(=O)Nc1ccc(Br)c(F)c1)=C2O [Example 37]
VALUE OBSERVED: 89

MOLECULE: COc1c(Cl)ncnc1-c1cc(C(F)(F)F)ccc1NC(=O)C1=C(O)[C@@]2(C)CCCN2N(Cc2cccc(F)c2F)C1=O [Example 49]
VALUE OBSERVED: 85

MOLECULE: COc1nc(C#N)ncc1-c1cc(C(F)(F)F)ccc1NC(=O)C1=C(O)[C@@]2(C)CCCN2N(Cc2ccc(OCCN3CCOCC3)c(F)c2F)C1=O [Example 55]
VALUE OBSERVED: 85

MOLECULE: C[C@]12CCCN1N(Cc1cccc(F)c1Br)C(=O)C(C(=O)Nc1ccc(Br)c(Cl)c1)=C2O [Example 41]
VALUE OBSERVED: 84

MOLECULE: C[C@]12CCCN1N(Cc1cccc(F)c1)C(=O)C(C(=O)Nc1ccc(C(F)(F)F)cc1-c1cc(C(F)(F)F)ncn1)=C2O [Example 34]
VALUE OBSERVED: 99

MOLECULE: CSc1ncc(-c2cc(C(F)(F)F)ccc2NC(=O)C2=C(O)[C@@]3(C)CCCN3N(Cc3cccc(F)c3F)C2=O)cn1 [Example 96]
VALUE OBSERVED: 83

MOLECULE: C[C@]12CCCN1N(Cc1cccc(F)c1F)C(=O)C(C(=O)Nc1ccc(Br)c(C(F)(F)F)c1)=C2O [Example 30]
VALUE OBSERVED: 71

MOLECULE: C[C@]12CCCN1N(Cc1cccc(F)c1)C(=O)C(C(=O)Nc1cc(F)c(Br)c(F)c1)=C2O [Example 36]
VALUE OBSERVED: 80

MOLECULE: C[C@]12CCCN1N(Cc1cccc(F)c1F)C(=O)C(C(=O)Nc1ccc(C(F)(F)F)cc1-c1cnc(C#N)nc1)=C2O [Example 95]
VALUE OBSERVED: 80

MOLECULE: C[C@]12CCCN1N(Cc1ccc(OCCN3CCOCC3)c(F)c1F)C(=O)C(C(=O)Nc1ccc(C(F)(F)F)nc1-c1ccc(OC(F)(F)F)cc1)=C2O [Example 60]
VALUE OBSERVED: 78

MOLECULE: CSc1ncc(-c2cc(C(F)(F)F)ccc2NC(=O)C2=C(O)[C@@]3(C)CCC(C)(C)N3N(Cc3cccc(F)c3F)C2=O)cn1 [Example 62]
VALUE OBSERVED: 73

MOLECULE: C[C@]12CCCN1N(Cc1cccc(F)c1F)C(=O)C(C(=O)Nc1ccc(Br)c(F)c1F)=C2O [Example 32]
VALUE OBSERVED: 73

MOLECULE: C[C@]12CCCN1N(Cc1cccc(F)c1Br)C(=O)C(C(=O)Nc1cccc(Cl)c1F)=C2O [Example 43]
VALUE OBSERVED: 79

MOLECULE: Cc1c(-c2cc(C(F)(F)F)ccc2NC(=O)C2=C(O)[C@@]3(C)CCCN3N(Cc3cccc(F)c3F)C2=O)ccnc1Cl [Example 47]
VALUE OBSERVED: 91

MOLECULE: CSc1ccc(-c2cc(C(F)(F)F)ccc2NC(=O)C2=C(O)[C@@]3(C)CCCN3N(Cc3cccc(F)c3F)C2=O)cn1 [Example 97]
VALUE OBSERVED: 89

MOLECULE: C[C@]12CCCN1N(Cc1cccc(F)c1F)C(=O)C(C(=O)Nc1ccc(C(F)(F)F)cc1-c1cnc(C#N)cn1)=C2O [Example 57]
VALUE OBSERVED: 71

MOLECULE: C[C@]12CCCN1N(Cc1cccc(F)c1F)C(=O)C(C(=O)Nc1cc(Br)c(Br)cc1F)=C2O [Example 33]
VALUE OBSERVED: 77

MOLECULE: C[C@]12CCCN1N(Cc1cccc(F)c1Br)C(=O)C(C(=O)Nc1ccc(Br)c(C(F)(F)F)c1)=C2O [Example 42]
VALUE OBSERVED: 67
